experiment: chemical genetic growth profiling, strain panel (AID 1159580);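 further: tested at 20 µM; growth read once vehicle control cultures reached saturation at 30 °C; 1 = growth at the plate median or of vehicle wells; lower values mean less growth of the strain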; settings: S. cerevisiae deletion strains, growth OD, locus YLR113W, strain HOG1
Screen size: about 5,500 compounds; about 2,000 (36%) were called active. Another 18% or so got no clear call; they are omitted. No stated cut-off is given here; in the data, active means normalized growth mostly below about 0.91 (no sharp cut-off); inconclusive means no clear call, values can overlap the other calls; inactive means mostly above about 0.92. Some of the results follow.
Bench note: report the call from active, inactive

{"MOLECULE": "CC(C[N+](C)(C)C)OC(N)=O (stereo not drawn)", "CLASS_NAME": "inactive"}
{"MOLECULE": "CCOC(=O)CCC(=O)O[C@H]1[C@H](O[C@@H]2[C@@H](C)[C@H](O[C@H]3C[C@@](C)(OC)[C@@H](O)[C@H](C)O3)[C@@H](C)C(=O)O[C@H](CC)[C@@](C)(O)[C@H](O)[C@@H](C)C(=O)[C@H](C)C[C@@]2(C)O)O[C@H](C)C[C@@H]1N(C)C", "CLASS_NAME": "inactive"}
{"MOLECULE": "COc1ccc2c(C)cc(=O)oc2c1", "CLASS_NAME": "inactive"}
{"MOLECULE": "CC(=O)OCC(=O)[C@@]1(O)CCC2C3CCC4=CC(=O)CC[C@]4(C)C3C(=O)C[C@@]21C (stereo partly drawn)", "CLASS_NAME": "inactive"}
{"MOLECULE": "CC1/C(=N\\O)C[C@@H]2C[C@H]1C2(C)C (stereo partly drawn)", "CLASS_NAME": "inactive"}
{"MOLECULE": "C=C(C)C1CNC(C(=O)O)C1CC(=O)O (stereo not drawn)", "CLASS_NAME": "inactive"}
{"MOLECULE": "COc1cc(/C=C/C(=O)/C=C(O)/C=C/c2ccc(O)c(OC)c2)ccc1O", "CLASS_NAME": "active"}
{"MOLECULE": "O=C(N/C=C/c1ccsc1)Nc1cc(C(F)(F)F)cc(C(F)(F)F)c1", "CLASS_NAME": "active"}
{"MOLECULE": "COc1cc(O)c(C(=O)/C=C/c2ccc(O)c(OC)c2)c(OC)c1", "CLASS_NAME": "inactive"}
{"MOLECULE": "Nc1ccccc1SCc1c(Cl)cccc1Cl", "CLASS_NAME": "active"}

Per the records of this test, what outcome belongs to `C[N+](C)(C)CCOC(N)=O` ?
inactive

Per the records of this test, what outcome belongs to `CCC(=O)O[C@H]1[C@H](O[C@@H]2[C@@H](C)[C@H](O[C@H]3C[C@@](C)(OC)[C@@H](O)[C@H](C)O3)[C@@H](C)C(=O)O[C@H](CC)[C@@](C)(O)[C@H](O)[C@@H](C)C(=O)[C@H](C)C[C@@]2(C)O)O[C@H](C)C[C@@H]1N(C)C` ?
inactive

Per the records of this test, what outcome belongs to `O=C1C=CC(=C(c2ccc(O)cc2)c2ccc(O)cc2)C=C1` ?
inactive

Per the records of this test, what outcome belongs to `O=S(=O)(Nc1cccc(CCc2ccccn2)c1)c1cc(Cl)c(Cl)cc1Cl` ?
inactive

Per the records of this test, what outcome belongs to O=C1C(=O)N(CN2CCc3c([nH]c4ccccc34)C2C(F)(F)F)c2ccc(F)cc21 (stereo not drawn) ?
active

###

// values below are reported normalized growth
assay: chemical genetic growth profiling, strain panel (AID 1159580); conditions: S. cerevisiae deletion strains, growth OD, locus YGL240W, strain doc1, hits give low values
The campaign covered roughly 5,500 compounds. About 2,000 (36%) were called active. Roughly 18% stayed inconclusive and do not appear here. The list shows a part of the results.
Note: the reply should be a number with no unit written.

Look over these answered cases.
{"COMPOUND": "CC1=C(C(C)O)C2=NC1C=c1[nH]c(c(C)c1C(C)O)=Cc1[nH]c(c(CCC(=O)O)c1C)C=c1[nH]c(c(C)c1CCC(=O)O)=C2 (stereo unspecified)", "normalized growth": 0.945}
{"COMPOUND": "CCN(CC)CCCC(C)Nc1c2ccc(Cl)cc2nc2ccc(OC)cc12 (stereo unspecified)", "normalized growth": 1}
{"COMPOUND": "COc1cc(/C=C/C(=O)/C=C(O)/C=C/c2ccc(O)c(OC)c2)ccc1O", "normalized growth": 0.399}
{"COMPOUND": "Cc1cccc(C)c1OCC(C)N (stereo unspecified)", "normalized growth": 1.02}
{"COMPOUND": "S=c1nc[nH]c2nc[nH]c12", "normalized growth": 1.01}

Okay, now this compound:
Quick check: normalized growth of `c1ccc(N=Nc2ccccc2)cc1` ?
0.975

###

assay: chemical genetic growth profiling, strain panel (AID 1159580);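 further: tested at 20 µM; growth read once vehicle control cultures reached saturation at 30 °C; 1 = growth at the plate median or of vehicle wells; lower values mean less growth of the strain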; conditions: S. cerevisiae deletion strains, growth OD, locus YGL253W, strain hxk2, hits give low values
Among all 5,500 compounds or so, about 2,000 (36%) were called active. Not shown: some 18% with an inconclusive outcome. The list shows a part of the results.
The label is 1 for normalized growth below 1 and -1 for normalized growth equal to or exceeding 1.

Study these solved cases before continuing.
{"COMPOUND": "COc1ccc2c(c1)O[C@@H]1COc3cc(OC)c(OC)cc3[C@@H]1C2=O", "CLASS_NAME": 1}
{"COMPOUND": "CCC(=O)O[C@H]1CCC2C3CCC4=CC(=O)CC[C@]4(C)C3CC[C@@]21C (stereo partly specified)", "CLASS_NAME": 1}
{"COMPOUND": "Oc1cc(Cl)ccc1Oc1ccc(Cl)cc1Cl", "CLASS_NAME": 1}
{"COMPOUND": "NC(=O)c1ccc[n+]([C@@H]2O[C@H](COP(=O)([O-])OP(=O)(O)OC[C@H]3O[C@@H](n4cnc5c(N)ncnc54)[C@H](O)[C@@H]3O)[C@@H](O)[C@H]2O)c1", "CLASS_NAME": -1}
{"COMPOUND": "CCCCCCNC(=O)n1cc(F)c(=O)[nH]c1=O", "CLASS_NAME": 1}

Query compound follows.
Does the reported normalized growth of the following compound sit strictly below 1? `CN(C)C(=S)SSC(=S)N(C)C`
1

###

test: chemical genetic growth profiling, strain panel (AID 1159580);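 further: tested at 20 µM; growth read once vehicle control cultures reached saturation at 30 °C; 1 = growth at the plate median or of vehicle wells; lower values mean less growth of the strain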; conditions: S. cerevisiae deletion strains, growth OD, locus YHR079C, strain IRE1 (second series), hits give low values
About 2,000 (36%) of roughly 5,500 compounds were called active. Another 18% or so got no clear call; they are omitted. The list shows a part of the results.
VALUE_TYPE: normalized growth
Note: the reply should be a number with no unit written.

Look over these answered cases.
{"COMPOUND": "CC(=O)NC1SCCC1=O (configuration not stated)", "normalized growth": 1}
{"COMPOUND": "COc1cc(NC(C)CCCN)c2ncccc2c1 (configuration not stated)", "normalized growth": 1.01}
{"COMPOUND": "CC1=C(C(C)O)C2=NC1C=c1[nH]c(c(C)c1C(C)O)=Cc1[nH]c(c(CCC(=O)O)c1C)C=c1[nH]c(c(C)c1CCC(=O)O)=C2 (configuration not stated)", "normalized growth": 1.01}
{"COMPOUND": "C[N+](C)(C)CCOC(N)=O", "normalized growth": 0.962}
{"COMPOUND": "CCN(CC)CCNC(=O)c1cc(Br)c(N)cc1OC", "normalized growth": 0.989}
{"COMPOUND": "CC1(C)OC(=O)NC1=O", "normalized growth": 0.983}

Quick check: normalized growth of C[C@H]1OC(n2cc(F)c(=O)[nH]c2=O)C(O)[C@@H]1O (some centres not stated) ?
0.985

Quick check: normalized growth of `NCCSSCCN` ?
1.02

Quick check: normalized growth of `COc1cc2c(cc1OC)C(=O)OC2` ?
1.01

Quick check: normalized growth of CC(C[N+](C)(C)C)OC(N)=O (configuration not stated) ?
0.975

Quick check: normalized growth of C=Cc1c2[nH]c(c1C)C=c1[nH]c(c(C)c1C=C)=CC1N=C(C=c3[nH]c(c(C)c3CCC(=O)O)=C2)C(CCC(=O)O)=C1C (configuration not stated) ?
0.99

Quick check: normalized growth of `CCOC(=O)[C@H](CCc1ccccc1)N[C@H]1CCc2ccccc2N(CC(=O)O)C1=O` ?
0.969

###

experiment: chemical genetic growth profiling, strain panel (AID 1159580);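 further: tested at 20 µM; growth read once vehicle control cultures reached saturation at 30 °C; 1 = growth at the plate median or of vehicle wells; lower values mean less growth of the strain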; details: S. cerevisiae deletion strains, growth OD, locus YOR136W, strain idh2, hits give low values
Hit rate of the full screen: of about 5,500 compounds, about 2,000 (36%) were called active. Not shown: some 18% with an inconclusive outcome. The list shows a part of the results.
// values below are reported normalized growth
Note: the reply should be a number with no unit written.

{"COMPOUND": "CC(=O)N[C@@H](CC(C)C)C(=O)O", "VALUE_TYPE": "normalized growth", "ASSAY_VALUE": 0.992}

Quick check: normalized growth of `CC(C)OC(=O)C(C)(C)Oc1ccc(C(=O)c2ccc(Cl)cc2)cc1` ?
0.989

Quick check: normalized growth of ClC1=C(Cl)C2(Cl)C3C(Cl)C=CC3C1(Cl)C2(Cl)Cl (configuration not stated) ?
0.963

Quick check: normalized growth of CCS(=O)CCSP(=O)(OC)OC (configuration not stated) ?
1

Quick check: normalized growth of `COc1ccc2c(c1)OCc1c-2oc2cc(OC)ccc12` ?
1

Quick check: normalized growth of `COc1cc(O)c(C(=O)/C=C/c2ccccc2)c(OC)c1` ?
0.907

Quick check: normalized growth of COCCc1ccc(OCC(O)CNC(C)C)cc1 (configuration not stated) ?
1.01
